biological target: His-hMAGL (recombinant polyhistidine tagged human MAGL protein) (Homo sapiens); construct: made in house; host or cells: E. coli BL21(DE3); experiment: Measurement of MAGL inhibitory activity (arachidonic acid production from 2-arachidonylglycerol, RapidFire-mass spectrometry); type: biochemical; conditions: MAGL inhibitory rate, test compound 10 μM, 60 min preincubation, 2-arachidonylglycerol substrate; 10 µM
Sequence (Q99685 whole entry): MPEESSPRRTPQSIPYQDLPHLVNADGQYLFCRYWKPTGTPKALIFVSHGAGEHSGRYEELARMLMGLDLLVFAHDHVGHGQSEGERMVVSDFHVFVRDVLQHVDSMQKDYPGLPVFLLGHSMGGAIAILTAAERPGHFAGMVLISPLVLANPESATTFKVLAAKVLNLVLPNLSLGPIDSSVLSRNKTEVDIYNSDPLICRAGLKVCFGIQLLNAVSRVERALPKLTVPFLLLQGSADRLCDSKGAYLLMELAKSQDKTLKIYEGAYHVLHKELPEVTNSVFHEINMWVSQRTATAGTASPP
MEASURED PROPERTY: % inhibition (10 μM) (%)
Just the number in %, nothing appended.

QUERY: Look up % inhibition (10 μM) with His-hMAGL (recombinant polyhistidine tagged human MAGL protein) (Homo sapiens) for this molecule: O=C1NC2(CCN(C(=O)c3sc4cc(OC(F)(F)F)ccc4c3Cl)C2)CO1 (centres unmarked) [Example 324]
RESULT: 94

QUERY: Entry to check: O=C1NC2(CCN(C(=O)c3sc4cc(Cl)cc(Cl)c4c3Cl)C2)CO1 (centres unmarked)
RESULT: 99

QUERY: What about this molecule? O=C1NC2(CO1)CN(C(=O)[C@H]1C[C@@H](OCc3ccc(C(F)(F)F)cc3F)C1)C2 (stereo in doubt)
RESULT: 99

QUERY: Try this molecule too: O=C1NC2(CCN(C(=O)c3sc4cc(OC(F)(F)F)ccc4c3Cl)C2)CO1 (centres unmarked) [Example 323]
RESULT: 101

QUERY: Try Cc1c(OC(F)(F)F)ccc2c(Cl)c(C(=O)N3CCC4(COC(=O)N4)C3)sc12 (centres unmarked) next.
RESULT: 96

Values from patent US10610520B2
